Where do the numbers come from? From ChEMBL document CHEMBL1152328.

Tested on: HeLa
Test: Cytotoxicity against human HeLa cells
Type: cell-based
PROPERTY MEASURED: IC50

C/C=C1/CN2[C@@H]3C[C@@]45c6cc(OC)ccc6N(C)[C@]4(O3)[C@@H]2C[C@@H]1[C@@]5(COC(=O)c1cc(OC)c(OC)c(OC)c1)C(=O)OC [ALSTIPHYLLANINE D] | > 25 µg/mL
C/C=C1/C[N+]2(C)[C@@H]3C[C@@]45c6cc(OC)ccc6N(C)[C@]4(O3)[C@@H]2C[C@@H]1[C@@]5(COC(=O)c1cc(OC)c(OC)c(OC)c1)C(=O)OC (some centres undefined) [ALSTIPHYLLANINE C] | > 25 µg/mL
C/C=C1\C[N+]2([O-])[C@H]3C[C@@H]1[C@]1(C(=O)OC)[C@@H](OC(C)=O)[C@]4(C[C@@H]12)c1ccccc1N(C)[C@H]34 [ALSTIPHYLLANINE A] | > 25 µg/mL

Could you now consider this next compound?
Prompt: Entry C/C=C1/C[N+]2(C)[C@@H]3C[C@@]45c6cc(OC)ccc6N(C)[C@]4(O3)[C@@H]2C[C@@H]1[C@@]5(COC(=O)c1ccc(OC)c(OC)c1)C(=O)OC (some centres undefined) [ALSTIPHYLLANINE B] needs its IC50 filled in; supply it.
Response: > 25 µg/mL
